IC50 values, listed per item
- Target Or System: VEGF receptor KDR (Homo sapiens, UniProt P35968)
- Construct: made in house; host or cells: Sf9 cells (Spodoptera frugiperda), recombinant baculovirus
- Sequence (P35968 806-1356): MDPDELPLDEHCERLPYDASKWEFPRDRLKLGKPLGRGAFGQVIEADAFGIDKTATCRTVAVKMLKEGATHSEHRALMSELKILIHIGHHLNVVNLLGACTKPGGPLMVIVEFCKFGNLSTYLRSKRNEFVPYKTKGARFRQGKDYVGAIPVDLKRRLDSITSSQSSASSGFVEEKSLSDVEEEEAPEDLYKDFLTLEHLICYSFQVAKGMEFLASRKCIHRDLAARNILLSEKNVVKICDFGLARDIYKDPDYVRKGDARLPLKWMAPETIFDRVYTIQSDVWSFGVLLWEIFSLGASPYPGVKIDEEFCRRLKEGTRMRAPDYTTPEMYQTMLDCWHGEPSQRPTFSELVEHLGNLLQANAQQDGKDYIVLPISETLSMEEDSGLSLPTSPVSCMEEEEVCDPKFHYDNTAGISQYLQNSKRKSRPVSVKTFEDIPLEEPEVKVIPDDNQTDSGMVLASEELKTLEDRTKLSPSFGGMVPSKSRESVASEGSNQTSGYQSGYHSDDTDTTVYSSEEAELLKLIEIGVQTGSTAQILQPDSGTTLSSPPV
- Experiment Summary: In vitro receptor tyrosine kinase assay (DELFIA), VEGF receptor KDR
- Format: biochemical
- Experimental Conditions: Table 31; ATP 0.6 uM, enzyme 5 nM; read-out: VEGFR IC50

CN(c1ccc(NC(=S)NC(=O)Cc2ccccc2)cc1F)c1ccnc2cc(-c3nccn3C)sc12 = > 500 nM

query: Fill in the blank: the reported IC50 of "CN(CCO)Cc1ccc(-c2cc3nccc(Oc4ccc(NC(=S)NC(=O)Cc5ccc(F)cc5)cc4F)c3s2)nc1" is ____.
result: < 50 nM

query: What do you get for "C#Cc1cccc(F)c1CC(=O)NC(=S)Nc1ccc(Oc2ccnc3cc(-c4cn(C)cn4)sc23)c(F)c1" ?
result: < 50 nM

query: What do you get for "C#Cc1cc(F)ccc1CC(=O)NC(=S)Nc1ccc(Oc2ccnc3cc(-c4cccc[n+]4[O-])sc23)c(F)c1" ?
result: < 50 nM
